// provenance: PubChem BioAssay (NCI)

# Test system: MALME-3M melanoma
# test summary: NCI-60 one-dose screen, 48 h (100 = growth as untreated, 0 = no growth, -100 = all killed)
# setup conditions: 10 µM unless noted
About 83,000 compounds went through this panel and 20% of them were active in at least one assay; those are over-represented in the sample as a whole. Active and inactive are the calls of the source. How the source made its calls: active means growth percent below 10; inactive means the rest.
observed property: growth

[[record]]
smiles_string = "CCNC(=S)NNC(=O)c1cc2ccc1CCc1ccc(cc1)CC2"
test_result = "101% (inactive)"

[[record]]
smiles_string = "CCCOc1nc(SCCC)nc2c1cnn2-c1ccccc1"
test_result = "119% (inactive)"

[[record]]
smiles_string = "O=C(CNCCO)Nc1ccc2ncnc(Nc3ccc(OCc4cccc(F)c4)c(Cl)c3)c2c1"
test_result = "98.2% (inactive)"

[[record]]
smiles_string = "COc1cc(-c2cc(=O)oc3cc(O)ccc23)cc(OC)c1OC"
test_result = "90.1% (inactive)"

[[record]]
smiles_string = "O=C(Nc1ccc2cc3ccc(NC(=O)N4CCCCCC4)cc3nc2c1)N1CCCCCC1"
test_result = "-85.3% (active)"

[[record]]
smiles_string = "CC(=O)Nc1ccc(S(=O)(=O)NC2CCCCC2)cc1"
test_result = "98.1% (inactive)"

